The values you see were collected from PubChem BioAssay (EPA / NIEHS).

measured.on: human Peroxisome Proliferator-activated Receptor delta (PPARd), PPARD (gene 5467)
run.description: ATG_PPARd_TRANS: Attagene TRANS-FACTORIAL HepG2 Assay for human Peroxisome Proliferator-activated Receptor delta (PPARd) (AID 2283002)
Results filed as inconclusive are left out. Active and inactive are the calls of the source. The calls were made as follows: active = hit-call score of the fitted dose curve at least 0.9, where 1 is the maximum; inconclusive = response in the unintended direction; inactive = score below 0.9.
readout.type: outcome

Oc1c(Cl)cc(Cl)cc1Sc1cc(Cl)cc(Cl)c1O
inactive
O=CC(F)(F)C(F)(F)C(F)(F)F
inactive
O=C(Nc1cccc([N+](=O)[O-])c1)c1cc2ccccc2cc1O
inactive
Cc1ccc2ccc3ccc(C)cc3c2c1
inactive
Cc1cccc2c1ccc1ccccc12
inactive

Data request, read-out outcome, for FC(OC(F)(F)C(F)(F)C(F)(F)F)C(F)(F)F (stereo not given)
inactive

Now the same for "NS(=O)(=O)O"
inactive

Now the same for COC(=O)CC(C(C)=O)C(=O)OC (stereo not given)
inactive

Now the same for "FC(F)(F)C(F)(F)C(F)(F)C(F)(F)I"
inactive

Now the same for "CS(=O)(=O)c1ccc([C@@H](CC2CCCC2)C(=O)Nc2cnccn2)cc1Cl"
inactive
